ASSAY_TARGET: Human EphA2 (ephrin receptor A2) on cells (human, UniProt P29317 25-976)
Sequence (P29317 25-976): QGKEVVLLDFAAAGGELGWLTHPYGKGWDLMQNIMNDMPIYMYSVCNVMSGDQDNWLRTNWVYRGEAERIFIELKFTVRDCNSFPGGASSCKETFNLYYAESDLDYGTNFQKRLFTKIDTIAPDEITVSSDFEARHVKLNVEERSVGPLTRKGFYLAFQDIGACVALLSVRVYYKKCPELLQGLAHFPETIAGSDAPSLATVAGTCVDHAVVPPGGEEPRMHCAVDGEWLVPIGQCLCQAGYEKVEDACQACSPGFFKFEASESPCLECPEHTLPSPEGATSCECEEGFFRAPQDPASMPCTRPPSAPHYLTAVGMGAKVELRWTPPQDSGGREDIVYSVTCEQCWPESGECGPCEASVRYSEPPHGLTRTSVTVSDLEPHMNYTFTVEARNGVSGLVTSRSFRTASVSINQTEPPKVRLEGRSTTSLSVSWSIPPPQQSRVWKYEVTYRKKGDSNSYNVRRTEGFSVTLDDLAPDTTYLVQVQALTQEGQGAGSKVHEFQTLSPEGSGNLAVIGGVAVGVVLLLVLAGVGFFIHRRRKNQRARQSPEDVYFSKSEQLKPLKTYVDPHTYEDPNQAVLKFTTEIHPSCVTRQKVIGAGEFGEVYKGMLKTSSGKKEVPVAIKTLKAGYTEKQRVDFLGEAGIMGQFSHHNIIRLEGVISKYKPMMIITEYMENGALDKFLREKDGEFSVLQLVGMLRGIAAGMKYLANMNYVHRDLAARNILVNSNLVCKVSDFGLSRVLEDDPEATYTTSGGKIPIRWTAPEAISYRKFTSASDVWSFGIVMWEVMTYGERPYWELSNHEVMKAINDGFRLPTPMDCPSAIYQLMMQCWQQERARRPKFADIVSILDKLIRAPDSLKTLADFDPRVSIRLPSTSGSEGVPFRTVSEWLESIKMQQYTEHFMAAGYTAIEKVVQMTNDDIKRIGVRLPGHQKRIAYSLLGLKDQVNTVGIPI
TEST_NAME: cell-based or functional assay
MEASURED_ATTRIBUTE: ADCC - EC50 (nM), Trial 1, A549
The figure you give is taken to be in nM; do not add the unit.

BINDER: AB-010357 (antibody, mouse IgG2a, V domains shown) VH: QVQLQQWGAGLLKPSETLSLTCAVYGGSFSDYYWSWIRQPPGKGLEWIGEINHRGSINYNNYNPSLKSRVTISVDTSKNQFSLKLSSVTAADTAVYYCAKPLRPHCTNGVCYSGDAFDIWGQGTMVTVAS VL: SYVLTQPPSVSVAPGQTARITCGGNNIGSKNVHWYQQKPGQAPVLVVYDDSDRPSGIPEQFSGSNSGNTATLTISRVEAGDEADYYCQVWDSSSDHVVFGGGTKLTVL
UNIT: nM
ADCC - EC50 (nM), Trial 1, A549: 12.3

BINDER: AB-010682 (antibody, V domains shown) VH: QVQLQQWGAGLLKPSETLSLTCAVYGGSFSGYYWSWIRQPPGKGLEWIGEINHRGSINYNNYNPSLKSRVTISVDTSKNQFSLKLSSVTAADTAVYYCAKPLRPHCINGVCYSGDAFDIWGQGTMVTVAS VL: SYVLTQPPSVSVAPGQTARITCGGNNIGSMNVHWYQQKPGQAPVLVVYDDSDRPSGIPEQFSGSNSGNTATLTISRVEAGDEADYYCQVWDSSSDHVVFGGGTKLTVL
UNIT: nM
ADCC - EC50 (nM), Trial 1, A549: 3.2

BINDER: AB-010700 (antibody, V domains shown) VH: QVQLQQWGAGLLKPSETLSLTCAVYGGSFSGYYWSWIRQPPGKGLEWIGEINHRGSINYNNYNPSLKSRVTISVDTSKNQFSLKLSSVTAADTAVYYCAKPLRPHCTNGVCYSGDAFDIWGQGTMVTVAS VL: SYVLTQPPSVSVAPGQTARITCGGNNIGSKNVHWYQQKPGQAPVLVVYDDSDRPSGIPERFSGSNSGNTATLTISRVEAGDEADYYCQVWDSRSDHVVFGGGTKLTVL
UNIT: nM
ADCC - EC50 (nM), Trial 1, A549: 9.5

BINDER: AB-010692 (antibody, V domains shown) VH: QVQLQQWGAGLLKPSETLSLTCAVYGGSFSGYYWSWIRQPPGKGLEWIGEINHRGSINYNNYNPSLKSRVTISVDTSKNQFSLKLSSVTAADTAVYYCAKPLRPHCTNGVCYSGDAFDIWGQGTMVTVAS VL: SYVLTQPPSVSVAPGQTARITCRGNNIGSKNVHWYQQKPGQAPVLVVYDDSDRPSGIPERFSGSNSGNTATLTISRVEAGDEADYYCQVWDHSSDHVVFGGGTKLTVL
UNIT: nM
ADCC - EC50 (nM), Trial 1, A549: 0.21

# lookup: ADCC - EC50 (nM), Trial 1, A549 of AB-010694 (antibody, V domains shown) VH: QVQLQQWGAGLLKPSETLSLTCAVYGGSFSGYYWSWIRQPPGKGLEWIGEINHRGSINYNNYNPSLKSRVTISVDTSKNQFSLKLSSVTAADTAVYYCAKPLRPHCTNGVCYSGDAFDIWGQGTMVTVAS VL: SYVLTQPPSVSVAPGQTARITCGGNNIGYMNVHWYQQKPGQAPVLVVYDDSDRPSGIPERFSGSNSGNTATLTISRVEAGDEADYYCQVWDSSSDHVVFGGGTKLTVL 0.14

I am curious: what ADCC - EC50 (nM), Trial 1, A549 value has been reported for AB-010662 (antibody, V domains shown) VH: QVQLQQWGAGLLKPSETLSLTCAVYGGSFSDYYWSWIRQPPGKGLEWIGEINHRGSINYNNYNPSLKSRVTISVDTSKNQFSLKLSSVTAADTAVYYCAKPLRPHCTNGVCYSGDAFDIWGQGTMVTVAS VL: SYVLTQPPSVSVAPGQTARITCRGNNIGYKNVHWYQQKPGQAPVLVVYDDSDRPSGIPEQFSGSNSGNTATLTISRVEAGDEADYYCQVWDSSSDHVVFGGGTKLTVL ? 0.57

What does the record list as ADCC - EC50 (nM), Trial 1, A549 for AB-010669 (antibody, V domains shown) VH: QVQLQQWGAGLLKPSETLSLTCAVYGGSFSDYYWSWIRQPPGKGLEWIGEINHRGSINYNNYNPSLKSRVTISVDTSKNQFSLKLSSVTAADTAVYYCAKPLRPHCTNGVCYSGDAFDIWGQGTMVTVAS VL: SYVLTQPPSVSVAPGQTARITCGGNNIGSMNVHWYQQKPGQAPVLVVYDDSDRPSGIPEQFSGSNSGNTATLTISRVEAGDEADYYCQVWDHSSDHVVFGGGTKLTVL ? 0.44

Data request, read-out ADCC - EC50 (nM), Trial 1, A549, for AB-010361 (antibody, mouse IgG2a, V domains shown) VH: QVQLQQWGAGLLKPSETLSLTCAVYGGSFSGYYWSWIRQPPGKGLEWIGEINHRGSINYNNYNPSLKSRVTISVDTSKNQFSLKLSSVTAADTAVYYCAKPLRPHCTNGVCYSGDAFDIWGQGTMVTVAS VL: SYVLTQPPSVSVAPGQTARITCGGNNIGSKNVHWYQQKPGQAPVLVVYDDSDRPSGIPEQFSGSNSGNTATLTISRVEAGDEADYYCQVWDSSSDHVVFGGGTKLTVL 4

Can you look up the measured ADCC - EC50 (nM), Trial 1, A549 of AB-010672 (antibody, V domains shown) VH: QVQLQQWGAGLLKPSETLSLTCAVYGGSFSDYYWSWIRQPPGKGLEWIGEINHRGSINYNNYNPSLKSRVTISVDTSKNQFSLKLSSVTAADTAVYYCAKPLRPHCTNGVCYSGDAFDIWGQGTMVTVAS VL: SYVLTQPPSVSVAPGQTARITCGGNNIGSKNVHWYQQKPGQAPVLVVYDDSDRPSGIPEQFSGSNSGNTATLTISRVEAGDEADYYCQVWDSRSDHVVFGGGTKLTVL for me? 12.4
